- procedure-text: The compound was tested for its ability to inhibit ErmC methylase
pKi: −log10 of the molar value.
Listed next: entries and their corresponding pKi.

Below, each entry is followed by its recorded pKi result.
So for Nc1nc(C[C@@H]2O[C@H](COCc3ccc(Br)cc3)[C@@H](O)[C@H]2O)nc(NC2Cc3ccccc3C2)n1 , the logged pKi turned out to be ~4.40

Please fill in: pKi reported for Nc1nc(CC2O[C@H](CSc3ccccc3)[C@@H](O)[C@H]2O)nc(NC2Cc3ccccc3C2)n1 (some centres not stated) = < 4.00

pKi reported for this molecule Nc1nc(CC2O[C@H](CSCc3ccc(Cl)cc3)[C@@H](O)[C@H]2O)nc(NC2Cc3ccccc3C2)n1 (some centres not stated) : ~4.10

The molecule identified as Nc1nc(CC2O[C@H](CSCc3ccccc3)[C@@H](O)[C@H]2O)nc(NC2Cc3ccccc3C2)n1 (some centres not stated) registered its pKi at < 4.00

Entry Nc1nc(C[C@@H]2O[C@H](COC/C=C/c3ccccc3)[C@@H](O)[C@H]2O)nc(NC2Cc3ccccc3C2)n1 ; pKi = ~4.22

---
Entry Cc1ccc(COC[C@H]2O[C@@H](Cc3nc(N)nc(NC4Cc5ccccc5C4)n3)[C@H](O)[C@@H]2O)cc1 — recorded pKi = < 4.00

The molecule identified as Nc1nc(NC2Cc3ccccc3C2)nc([C@H]2C[C@@H](O)[C@H](O)[C@H](OCc3ccccc3)C2)n1 registered its pKi at < 4.00
